For each record, write down the corresponding viability at 28.5 h, 10 µM.
Method: in vitro
Reported Conditions: human, hela cells, % viability

// known answers, use as guide
# Compound, Experimental Result
measured = [
    ("CCC(CN1CCOCC1)NC(=O)Cc1coc2cc(C)ccc12 (stereo not shown)", "93.3%"),
    ("CC1CCCCN1CCCNC(=O)c1ccc(-c2nc(-c3ccc(C#N)cc3)cnc2N)cc1 (stereo not shown)", "111%"),
    ("CN(C)c1cccc(C(=O)Nc2ccccc2N2CCOCC2)c1", "76.2%"),
]

Quick one: give me viability at 28.5 h, 10 µM for each item below, same order please.
1. O=C(NC1CCN(Cc2c(F)cccc2Cl)CC1)C1CCN(C(=O)OCc2ccccc2)CC1
2. O=c1[nH]c2ccc(S(=O)(=O)Nc3ccc(-c4ccccc4)cc3)cc2[nH]1
3. CS(=O)(=O)N(CC(=O)Nc1ccccc1-c1ccccc1)c1ccc(F)c(Cl)c1
4. CC(=O)c1cccc(NC(=O)CCn2[nH]c(=O)ccc2=O)c1
5. c1sc(C2CN3CCCC3CO2)nc1C1CCCC1 (stereo not shown)

Given back:
1: 108%; 2: 99.8%; 3: 91.2%; 4: 91.4%; 5: 90.4%

Quick one: give me viability at 28.5 h, 10 µM for each item below, same order please.
1. COc1ccc(OC)c(S(=O)(=O)n2ccc3c(N4CCNCC4)nccc32)c1 [CBK059067C]
2. C[C@@H](Cn1nnc2ccccc21)NC(=O)c1ccco1
3. O=C(NCc1nnc(-c2cccs2)o1)C1(c2cccc(F)c2)CC1
4. CCOc1ccc(-c2c3c(c(-c4ccccc4)n2-c2ccc(N)cc2)C(=O)c2ccccc2C3=O)cc1
5. Cc1cc(C)cc(N(C(C)C(=O)N2CCN(Cc3ccc4c(c3)OCO4)CC2)S(C)(=O)=O)c1 (stereo not shown)
6. CCOc1ccc(C2(C)C(=O)N(CN3CCOCC3)C(=O)N2CN2CCOCC2)cc1 (stereo not shown)
7. CCSc1nc(N)cc(O)n1

Given back:
1: 101%; 2: 75.9%; 3: 90.2%; 4: 40%; 5: 90.3%; 6: 96%; 7: 90.5%

Quick one: give me viability at 28.5 h, 10 µM for each item below, same order please.
1. Cc1ccc(NC(=O)CSc2cnn[nH]2)cc1
2. c1ccc(Cn2c3ccccc3c3nnc(SCc4ccc5nonc5c4)nc32)cc1
3. COC(=O)c1ccsc1NS(=O)(=O)Cc1ccccc1
4. CC(C)C(CNCc1cncnc1)c1ccnn1C (stereo not shown)

Given back:
1. 86.2%
2. 91.5%
3. 108%
4. 79.9%
